Recorded MIC, one value per entry.
System: Escherichia coli
assay_explanation: Antimicrobial activity against Escherichia coli ATCC […] after 18 to 24 hrs by alamar blue assay
Assay type: functional
condition_context: Escherichia coli; read-out: MIC
observation_type: MIC (µg/mL)

                                    compound  unit_symbol  limit_qualifier  number
 0  CC(C)N1C(=O)/C(=C/c2ccc([N+](=O)[O-])o2)SC1=S        µg/mL                =      16
 1  O=C1c2cc([N+](=O)[O-])cc3cc([N+](=O)[O-])cc(c23)C(=O)N1c1cccc2ccccc12        µg/mL                >     256
 2  Cc1ccc(NS(=O)(=O)c2ccc3c(c2)NCC(C)C(=O)S3)c(C)c1 (stereo not given)        µg/mL                >     256
 3  O=C(Nc1nnc(-c2ccc(Cl)cc2)o1)c1cccc(C(F)(F)F)c1        µg/mL                >     256
 4  Cc1c(CC(=O)N[C@@H](C(=O)O)C(C)C)c(=O)oc2c(C)c3occ(-c4ccc(Cl)cc4)c3cc12        µg/mL                >     256
 5  Cc1ccc(C(C)C)cc1Oc1ccc(Cl)cc1NC(=O)c1cc(Cl)cc(Br)c1O        µg/mL                =       8
 6  O=C(Nc1cccc2c1C(=O)NC2=O)c1ccc([N+](=O)[O-])o1        µg/mL                =     256
 7  O=C(Nc1cccc(C2=Nc3ccccc3C2)c1)c1ccc([N+](=O)[O-])o1        µg/mL                =     256
 8  O=C(Nc1ccc(Oc2ccc3ccccc3c2Cl)c(Cl)c1)c1cc(I)cc(I)c1O        µg/mL                =       8
 9  CN1C(=O)c2ccccc2Sc2ccc(NC(=O)c3ccc([N+](=O)[O-])o3)cc21        µg/mL                =     256
10  O=C(c1ccc(Cl)cc1)c1cc(NC(=O)c2cc(I)cc(I)c2O)ccc1Cl        µg/mL                =       8
11  O=C(Nc1cc(Cl)ccc1Oc1ccc(Br)c2ccccc12)c1cc(Cl)cc(I)c1O        µg/mL                =       8
12  O=C(Nc1cc(Cl)ccc1Oc1ccccc1)c1cc(Br)cc(Br)c1O        µg/mL                =       8
13  O=C(Nc1cc(Cl)ccc1Oc1cccc2c(Br)cccc12)c1cc(Cl)cc(Br)c1O        µg/mL                =       8
14       O=C(Nc1cccc(Cl)c1)c1cc(Br)cc(Br)c1O        µg/mL                =       8
15    O=C(Nc1nnc(-c2ccc(F)cc2)o1)c1ccc(Cl)s1        µg/mL                >     256
16     O=C(Nc1cc(Cl)ccc1Cl)c1cc(Br)cc(Br)c1O        µg/mL                =       8
17  COC(=O)c1ccccc1NC(=O)c1ccc([N+](=O)[O-])o1        µg/mL                =     256
18  CCC1Sc2ccc(S(=O)(=O)Nc3cc(Cl)ccc3C)cc2NC1=O (stereo not given)        µg/mL                >     256
19  Cc1ccc(NS(=O)(=O)c2ccc3c(c2)NCC(C)C(=O)S3)c(Br)c1 (stereo not given)        µg/mL                >     256
20  O=C(Nc1ccc(Oc2ccc(Br)c3ccccc23)c(Cl)c1)c1cc(Br)cc(Br)c1O        µg/mL                =       8
21  O=C(Nc1ccc(Oc2ccc3ccccc3c2Cl)c(Cl)c1)c1cc(Cl)cc(Br)c1O        µg/mL                =       8
22  NC(=O)c1oc2ccccc2c1NC(=O)c1ccc([N+](=O)[O-])o1        µg/mL                =     256
23  Cc1c(CC(=O)N2CCC[C@H]2C(=O)O)c(=O)oc2c(C)c3occ(-c4ccc(F)cc4)c3cc12        µg/mL                >     256
24  Cc1ccc(C(=O)c2cc(Cl)cc(NC(=O)c3cc(Br)cc(Br)c3O)c2Cl)cc1        µg/mL                =       8
25  O=C(c1ccc(Cl)cc1)c1cc(NC(=O)c2cc(Br)cc(Br)c2O)ccc1Br        µg/mL                =       8
26  Cc1c(CC(=O)N[C@@H](C(=O)O)c2ccccc2)c(=O)oc2c(C)c3occ(-c4ccc(Cl)cc4)c3cc12        µg/mL                >     256
27  O=C(c1ccc(NC(=O)c2cc(Br)cc(Br)c2O)c(Cl)c1)c1cccs1        µg/mL                =       8
28  Cc1ccc(N2C(=O)c3ccc([N+](=O)[O-])c4c([N+](=O)[O-])ccc(c34)C2=O)cc1        µg/mL                >     256
29  O=C(Nc1ccc(Oc2ccc(Cl)c3cccnc23)c(Br)c1)c1cc(Br)cc(Br)c1O        µg/mL                =       8
30  Cc1ccc(C(C)C)cc1Oc1ccc(Cl)cc1NC(=O)c1cc(Cl)ccc1O        µg/mL                =       8
31  O=C(Nc1cc(S(=O)(=O)c2ccc(Cl)cc2)ccc1Cl)c1cc(I)cc(I)c1O        µg/mL                =       8
32  O=C(Nc1nnc(-c2ccc(Cl)cc2)o1)c1cccc(Cl)c1        µg/mL                >     256
33  O=C1c2ccc([N+](=O)[O-])c3c([N+](=O)[O-])ccc(c23)C(=O)N1c1ccccc1        µg/mL                >     256
34       O=C(Nc1ccc(Cl)cc1)c1cc(Br)cc(Br)c1O        µg/mL                =       8
35  O=C(Nc1cc(Cl)ccc1Oc1ccc(Cl)c2ccccc12)c1cc(I)cc(I)c1O        µg/mL                =       8
36   CSc1ccccc1-c1nnc(NC(=O)c2nc3ccccc3s2)o1        µg/mL                >     256
37  Cc1cccc(NS(=O)(=O)c2ccc3c(c2)NC(=O)C(C)S3)c1C (stereo not given)        µg/mL                >     256
38  O=C(Nc1cccc2cccnc12)c1ccc([N+](=O)[O-])o1        µg/mL                =     256
39  O=C(c1ccccc1)c1cc(NC(=O)c2cc(Br)cc(Br)c2O)ccc1Cl        µg/mL                =       8
